system: PXR homodimer (NR concentration 270 nM); experiment: PBM binding z-score (relative to random genomic background probes); higher = stronger binding; sequences stand for … in GC…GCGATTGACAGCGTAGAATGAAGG
Exercise: state measured PBM binding z-score for each of the sequences provided.
One number for each entry.

See these solved cases before continuing.
{"sequence.entry": "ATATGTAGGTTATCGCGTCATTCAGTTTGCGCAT", "PBM binding z-score": 0.292}
{"sequence.entry": "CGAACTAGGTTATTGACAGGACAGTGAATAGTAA", "PBM binding z-score": 0.237}
{"sequence.entry": "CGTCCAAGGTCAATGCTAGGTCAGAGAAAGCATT", "PBM binding z-score": 1.92}
{"sequence.entry": "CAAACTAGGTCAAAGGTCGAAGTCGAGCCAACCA", "PBM binding z-score": 0.27}
{"sequence.entry": "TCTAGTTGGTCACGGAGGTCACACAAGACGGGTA", "PBM binding z-score": 1.16}
{"sequence.entry": "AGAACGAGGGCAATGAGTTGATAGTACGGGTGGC", "PBM binding z-score": 6.24}

State the recorded PBM binding z-score for every item in the following list.
1. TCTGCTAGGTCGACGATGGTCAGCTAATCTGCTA
2. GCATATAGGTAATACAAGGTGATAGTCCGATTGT
3. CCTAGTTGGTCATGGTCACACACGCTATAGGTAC
4. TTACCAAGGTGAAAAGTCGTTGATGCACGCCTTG
5. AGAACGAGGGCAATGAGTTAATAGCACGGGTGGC
6. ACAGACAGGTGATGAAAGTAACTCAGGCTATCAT

Result:
1: -1.16; 2: -0.157; 3: 0.732; 4: -0.523; 5: 2.98; 6: 0.153
